Assay: Oral bioavailability in human
Assay type: ADME, organism-based
Conditions: in vivo
Below: a set of entries, each annotated with reported bioavailability.
Please give a number only; it is taken to be in %.

COC(=O)N[C@H](C(=O)N1CCC[C@H]1c1nc(-c2ccc(-c3ccc(-c4c[nH]c([C@@H]5CCCN5C(=O)[C@@H](NC(=O)OC)C(C)C)n4)cc3)cc2)c[nH]1)C(C)C [DACLATASVIR]
67
CC(C)OC(=O)[C@H](C)N[P@](=O)(OC[C@H]1O[C@@H](n2ccc(=O)[nH]c2=O)[C@](C)(F)[C@@H]1O)Oc1ccccc1 [SOFOSBUVIR]
92

Attention now turns to another entry.
**Q:** Find the measured bioavailability of COC(=O)N[C@H](C(=O)N1CC2(CC2)C[C@H]1c1ncc(-c2ccc3c(c2)C(F)(F)c2cc(-c4ccc5nc([C@@H]6[C@H]7CC[C@H](C7)N6C(=O)[C@@H](NC(=O)OC)C(C)C)[nH]c5c4)ccc2-3)[nH]1)C(C)C [LEDIPASVIR] and report it.
**A:** 76

====

molecules and their reported bioavailability
Assay: Absolute bioavailability in human
Assay type: ADME, organism-based
Conditions: in vivo
Mention the unit after the number when you answer.

**Q:** // fetch bioavailability given entry Cc1cnc(C(=O)N[C@H]2CCCCC/C=C\[C@@H]3C[C@@]3(C(=O)NS(=O)(=O)C3CC3)NC(=O)[C@@H]3C[C@@H](Oc4nc5ccccc5c5ccccc45)CN3C2=O)cn1 [PARITAPREVIR]
**A:** 53%

**Q:** Give me measured bioavailability, please, for this molecule: COC(=O)N[C@H](C(=O)N1CCC[C@H]1C(=O)Nc1ccc([C@@H]2CC[C@@H](c3ccc(NC(=O)[C@@H]4CCCN4C(=O)[C@@H](NC(=O)OC)C(C)C)cc3)N2c2ccc(C(C)(C)C)cc2)cc1)C(C)C [OMBITASVIR]
**A:** 48%

**Q:** Provide one value: measured bioavailability of COc1c(-c2ccc3cc(NS(C)(=O)=O)ccc3c2)cc(-n2ccc(=O)[nH]c2=O)cc1C(C)(C)C [DASABUVIR]
**A:** 70%

====

Experiment: Drug excretion in human feces assessed as dasabuvir level
Format: ADME, tissue-based
Details: faeces, read-out: Drug excretion
PROPERTY MEASURED: dose excreted (%)
Give a bare numeral; the unit % is implied.

**Q:** Supply recorded dose excreted for `COc1c(-c2ccc3cc(NS(C)(=O)=O)ccc3c2)cc(-n2ccc(=O)[nH]c2=O)cc1C(C)(C)C` here.
**A:** 26.2

====

Assay: Half life in HIV infected human
Format: ADME
PROPERTY MEASURED: half-life (min)
Kindly provide the numeric value in min only, without the unit symbol.

**Q:** Name the recorded half-life of the compound listed here: `COc1ccc2c(O[C@@H]3C[C@H]4C(=O)N[C@]5(C(=O)NS(=O)(=O)C6CC6)C[C@H]5/C=C\CCCCN(C)C(=O)[C@@H]4C3)cc(-c3nc(C(C)C)cs3)nc2c1C`
**A:** 2460

====

Assay: Oral bioavailability in human under fed condition
Type: ADME, organism-based
Conditions: in vivo
PROPERTY MEASURED: bioavailability (%)
Quick note: give the figure in %, leave out the unit.

**Q:** Report measured bioavailability; entry is `COc1ccc2c(O[C@@H]3C[C@H]4C(=O)N[C@]5(C(=O)NS(=O)(=O)C6CC6)C[C@H]5/C=C\CCCCN(C)C(=O)[C@@H]4C3)cc(-c3nc(C(C)C)cs3)nc2c1C`
**A:** 62

Entry source: ChEMBL document CHEMBL4609973
